Data origin: patent US8969325B2

Biological target: human TRPV1 (Homo sapiens (Human), UniProt Q8NER1)
Sequence (Q8NER1 whole entry): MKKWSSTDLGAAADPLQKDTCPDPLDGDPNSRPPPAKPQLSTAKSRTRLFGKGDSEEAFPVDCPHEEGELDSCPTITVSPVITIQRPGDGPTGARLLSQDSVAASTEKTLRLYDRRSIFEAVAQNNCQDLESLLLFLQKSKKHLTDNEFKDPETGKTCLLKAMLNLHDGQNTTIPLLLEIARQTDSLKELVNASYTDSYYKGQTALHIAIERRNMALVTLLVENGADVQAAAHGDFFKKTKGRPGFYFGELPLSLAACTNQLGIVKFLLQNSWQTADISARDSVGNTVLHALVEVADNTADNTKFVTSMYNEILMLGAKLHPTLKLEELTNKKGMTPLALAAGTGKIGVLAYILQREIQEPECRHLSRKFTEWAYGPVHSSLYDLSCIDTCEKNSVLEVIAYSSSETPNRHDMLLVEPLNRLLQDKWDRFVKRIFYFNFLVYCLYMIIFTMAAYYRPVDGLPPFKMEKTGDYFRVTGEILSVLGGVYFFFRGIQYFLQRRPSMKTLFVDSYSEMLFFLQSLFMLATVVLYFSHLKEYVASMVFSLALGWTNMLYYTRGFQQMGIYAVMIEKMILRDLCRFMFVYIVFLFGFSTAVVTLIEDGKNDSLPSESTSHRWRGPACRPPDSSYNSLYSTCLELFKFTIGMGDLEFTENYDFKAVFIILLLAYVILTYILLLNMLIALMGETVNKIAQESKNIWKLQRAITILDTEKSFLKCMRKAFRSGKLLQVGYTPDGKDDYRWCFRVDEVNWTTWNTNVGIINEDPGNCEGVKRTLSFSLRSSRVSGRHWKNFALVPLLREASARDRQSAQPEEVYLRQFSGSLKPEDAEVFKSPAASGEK
Assay: Capsaicin Activation Assay (intracellular Ca2+, FLIPR)
Conditions: recombinant HEK293 cells expressing hTRPV1, 50 nM capsaicin
Exercise: state measured pIC50 for each of the compounds provided.
One number for each entry, as −log10 of the molar value.

See these solved cases before continuing.
{"Smiles Input": "CN1C(=O)CCc2ccc(NC(=O)N[C@@H]3CC(C)(C)Oc4cc(C(F)(F)F)ccc43)cc21", "Recorded Result": 6.18}
{"Smiles Input": "Cn1c(=O)ccc2c(NC(=O)N[C@@H]3CC(C)(C)Oc4cc(Cl)ccc43)cccc21", "Recorded Result": 7.80}
{"Smiles Input": "CN1Cc2ccc(NC(=O)N[C@@H]3CCOc4ccc(F)cc43)cc2NC1=O", "Recorded Result": 5.17}
{"Smiles Input": "O=C1CCc2ccc(NC(=O)N[C@@H]3CC(CF)(CF)Oc4c3ccc(Cl)c4F)cc2N1", "Recorded Result": 7.12}

Please look at the items below and tell me pIC50 for each one, in order.
1. CN1C(=O)NCc2c(NC(=O)N[C@@H]3C[C@@](C)(C(F)F)Oc4cc(Cl)ccc43)cccc21
2. CCC1(CC)C[C@@H](NC(=O)Nc2ccc3c(c2)NC(=O)N(C)C3)c2ccc(Cl)c(Cl)c2O1
3. CN1C(=O)NCc2c(NC(=O)N[C@@H]3CC(CF)(CF)Oc4cc(C(F)(F)F)ccc43)cccc21
4. CC1(C)C[C@@H](NC(=O)Nc2ccc3c(c2)NC(=O)N(CCO)C3)c2ccc(Cl)cc2O1

OUTPUT:
1: 7.68; 2: 6.42; 3: 7.42; 4: 7.12

====

Target: UniProt Q8NER1
Test: Acid Activation Assay (pH 5.0, intracellular Ca2+, FLIPR)
Format: cell-based
Conditions: percentage of the maximal pH 5.0-induced response remaining; recombinant HEK293 hTRPV1 cells; maximum concentration tested 37.5 μM
Protocol: Dulbecco's modified Eagle's medium (DMEM) with 4.5 m g/mL D-glucose, fetal bovine serum, L-glutamine, and 2-morpholinoethanesulfonic acid (MES) were purchased from Sigma-Aldrich Co. (St. Louis, Mo.). […] The functional activity of compounds at the TRPV1 receptor was determined by measurement of intracellular Ca^2+ levels ([Ca^2+]i) using the Fluorescence Imaging Plate Reader (FLIPR)TETRA®. […] The intensity of the fluorescence was captured and digitally transferred to an interfaced PC. […]
# note: boundary value 50% maps to Not fulfilled; human TRPV1 H^+ (max % remain) below it maps to Fulfilled

Past entries and their recorded results:
{"Molecule": "COCC1(COC)C[C@@H](NC(=O)Nc2cccc3c2ccc(=O)n3C)c2cc(F)ccc2O1", "Study System": "UniProt Q8NER1", "Assigned Class": "Fulfilled"}
{"Molecule": "CN1C(=O)NCc2c(NC(=O)N[C@@H]3CC(C)(C)Oc4c3ccc(F)c4Cl)cccc21", "Study System": "UniProt Q8NER1", "Assigned Class": "Fulfilled"}
{"Molecule": "CC1(C)C[C@@H](NC(=O)Nc2ccc3c(c2)NC(=O)N(CCO)C3)c2ccc(C(F)(F)F)nc2O1", "Study System": "UniProt Q8NER1", "Assigned Class": "Fulfilled"}
{"Molecule": "Cn1c(=O)ccc2c(NC(=O)N[C@@H]3CC(C)(C)Oc4c3ccc(F)c4Cl)cccc21", "Study System": "UniProt Q8NER1", "Assigned Class": "Fulfilled"}
{"Molecule": "CN1Cc2ccc(NC(=O)N[C@@H]3CC(C)(C)Oc4cc(C(F)(F)F)ccc43)cc2NC1=O", "Study System": "UniProt Q8NER1", "Assigned Class": "Fulfilled"}

INPUT: Hello, I'm reviewing records and need to know if human TRPV1 H^+ (max % remain) of CCC1(CC)C[C@@H](NC(=O)Nc2ccc3c(c2)NC(=O)N(CCO)C3)c2ccc(C(F)(F)F)cc2O1 is below 50%. Could you check?
OUTPUT: Fulfilled

INPUT: Does the reported human TRPV1 H^+ (max % remain) of the following molecule sit strictly below 50%? CCC1(CC)C[C@@H](NC(=O)Nc2ccc3c(c2)NC(=O)N(C)C3)c2ccc(OC(F)(F)F)cc2O1
OUTPUT: Fulfilled

INPUT: Is human TRPV1 H^+ (max % remain) of CN1C(=O)CCc2ccc(NC(=O)N[C@@H]3CCOc4cc(OC(F)(F)F)ccc43)cc21 strictly below 50%?
OUTPUT: Not fulfilled

INPUT: Lab note: confirm whether the reported human TRPV1 H^+ (max % remain) for this molecule is below 50%, equality not counting. molecule: CC1(C)C[C@@H](NC(=O)Nc2ccc3c(c2)NC(=O)CC3)c2ccc(C(F)(F)F)nc2O1
OUTPUT: Fulfilled

INPUT: In plain terms, does Cn1c(=O)ccc2c(NC(=O)N[C@@H]3CC(CF)(CF)Oc4c(F)cccc43)cccc21 come in under 50% for human TRPV1 H^+ (max % remain)?
OUTPUT: Not fulfilled

INPUT: Regarding CN1C(=O)CCc2ccc(NC(=O)N[C@@H]3CC(C)(C)Oc4cc(C(F)(F)F)ccc43)cc21 , kindly confirm whether its human TRPV1 H^+ (max % remain) is beneath 50%.
OUTPUT: Not fulfilled

INPUT: Record CN1Cc2ccc(NC(=O)N[C@@H]3CCc4cc(C(C)(C)C)ccc43)cc2NC1=O : is its human TRPV1 H^+ (max % remain) strictly below 50%?
OUTPUT: Fulfilled

INPUT: Quick check: does COCC1(COC)C[C@@H](NC(=O)Nc2ccc3c(c2)NC(=O)CC3)c2cc(F)ccc2O1 have human TRPV1 H^+ (max % remain) under 50%?
OUTPUT: Not fulfilled

INPUT: human TRPV1 H^+ (max % remain) under 50%? Item: CCC1(CC)C[C@@H](NC(=O)Nc2ccc3c(c2)N(C)C(=O)CC3)c2ccc(OC(F)(F)F)cc2O1
OUTPUT: Not fulfilled

INPUT: Dear colleague, could you confirm whether human TRPV1 H^+ (max % remain) of CCC1(CC)C[C@@H](NC(=O)Nc2ccc3c(c2)N(C)C(=O)CC3)c2ccccc2O1 falls below 50%? Thanks.
OUTPUT: Not fulfilled

INPUT: Threshold test, human TRPV1 H^+ (max % remain) < 50%: CN1C(=O)CCc2ccc(NC(=O)N[C@@H]3CC(C)(C)Oc4c3cccc4C(F)(F)F)cc21
OUTPUT: Not fulfilled

INPUT: Threshold test, human TRPV1 H^+ (max % remain) < 50%: CCCC1(CCC)C[C@@H](NC(=O)Nc2ccc3c(c2)NC(=O)CO3)c2cccc(F)c2O1
OUTPUT: Not fulfilled

INPUT: Given the entry CCC1(CC)C[C@@H](NC(=O)Nc2ccc3c(c2)NC(=O)CO3)c2ccc(Cl)c(Cl)c2O1 , would its reported human TRPV1 H^+ (max % remain) be below 50%?
OUTPUT: Not fulfilled

INPUT: Given the entry CCCC1(CCC)C[C@@H](NC(=O)Nc2ccc3c(c2)NC(=O)CC3)c2cccc(F)c2O1 , would its reported human TRPV1 H^+ (max % remain) be below 50%?
OUTPUT: Fulfilled
